Tested on: full-length human PIKFYVE (N-terminal GST-fusion) (Homo sapiens (Human), UniProt Q9Y2I7, L932S/Q1183K/Q995L/S1033A/S696N/T998S)
Sequence (Q9Y2I7 whole entry S696N/L932S/Q995L/T998S/S1033A/Q1183K, the tested form may be a part): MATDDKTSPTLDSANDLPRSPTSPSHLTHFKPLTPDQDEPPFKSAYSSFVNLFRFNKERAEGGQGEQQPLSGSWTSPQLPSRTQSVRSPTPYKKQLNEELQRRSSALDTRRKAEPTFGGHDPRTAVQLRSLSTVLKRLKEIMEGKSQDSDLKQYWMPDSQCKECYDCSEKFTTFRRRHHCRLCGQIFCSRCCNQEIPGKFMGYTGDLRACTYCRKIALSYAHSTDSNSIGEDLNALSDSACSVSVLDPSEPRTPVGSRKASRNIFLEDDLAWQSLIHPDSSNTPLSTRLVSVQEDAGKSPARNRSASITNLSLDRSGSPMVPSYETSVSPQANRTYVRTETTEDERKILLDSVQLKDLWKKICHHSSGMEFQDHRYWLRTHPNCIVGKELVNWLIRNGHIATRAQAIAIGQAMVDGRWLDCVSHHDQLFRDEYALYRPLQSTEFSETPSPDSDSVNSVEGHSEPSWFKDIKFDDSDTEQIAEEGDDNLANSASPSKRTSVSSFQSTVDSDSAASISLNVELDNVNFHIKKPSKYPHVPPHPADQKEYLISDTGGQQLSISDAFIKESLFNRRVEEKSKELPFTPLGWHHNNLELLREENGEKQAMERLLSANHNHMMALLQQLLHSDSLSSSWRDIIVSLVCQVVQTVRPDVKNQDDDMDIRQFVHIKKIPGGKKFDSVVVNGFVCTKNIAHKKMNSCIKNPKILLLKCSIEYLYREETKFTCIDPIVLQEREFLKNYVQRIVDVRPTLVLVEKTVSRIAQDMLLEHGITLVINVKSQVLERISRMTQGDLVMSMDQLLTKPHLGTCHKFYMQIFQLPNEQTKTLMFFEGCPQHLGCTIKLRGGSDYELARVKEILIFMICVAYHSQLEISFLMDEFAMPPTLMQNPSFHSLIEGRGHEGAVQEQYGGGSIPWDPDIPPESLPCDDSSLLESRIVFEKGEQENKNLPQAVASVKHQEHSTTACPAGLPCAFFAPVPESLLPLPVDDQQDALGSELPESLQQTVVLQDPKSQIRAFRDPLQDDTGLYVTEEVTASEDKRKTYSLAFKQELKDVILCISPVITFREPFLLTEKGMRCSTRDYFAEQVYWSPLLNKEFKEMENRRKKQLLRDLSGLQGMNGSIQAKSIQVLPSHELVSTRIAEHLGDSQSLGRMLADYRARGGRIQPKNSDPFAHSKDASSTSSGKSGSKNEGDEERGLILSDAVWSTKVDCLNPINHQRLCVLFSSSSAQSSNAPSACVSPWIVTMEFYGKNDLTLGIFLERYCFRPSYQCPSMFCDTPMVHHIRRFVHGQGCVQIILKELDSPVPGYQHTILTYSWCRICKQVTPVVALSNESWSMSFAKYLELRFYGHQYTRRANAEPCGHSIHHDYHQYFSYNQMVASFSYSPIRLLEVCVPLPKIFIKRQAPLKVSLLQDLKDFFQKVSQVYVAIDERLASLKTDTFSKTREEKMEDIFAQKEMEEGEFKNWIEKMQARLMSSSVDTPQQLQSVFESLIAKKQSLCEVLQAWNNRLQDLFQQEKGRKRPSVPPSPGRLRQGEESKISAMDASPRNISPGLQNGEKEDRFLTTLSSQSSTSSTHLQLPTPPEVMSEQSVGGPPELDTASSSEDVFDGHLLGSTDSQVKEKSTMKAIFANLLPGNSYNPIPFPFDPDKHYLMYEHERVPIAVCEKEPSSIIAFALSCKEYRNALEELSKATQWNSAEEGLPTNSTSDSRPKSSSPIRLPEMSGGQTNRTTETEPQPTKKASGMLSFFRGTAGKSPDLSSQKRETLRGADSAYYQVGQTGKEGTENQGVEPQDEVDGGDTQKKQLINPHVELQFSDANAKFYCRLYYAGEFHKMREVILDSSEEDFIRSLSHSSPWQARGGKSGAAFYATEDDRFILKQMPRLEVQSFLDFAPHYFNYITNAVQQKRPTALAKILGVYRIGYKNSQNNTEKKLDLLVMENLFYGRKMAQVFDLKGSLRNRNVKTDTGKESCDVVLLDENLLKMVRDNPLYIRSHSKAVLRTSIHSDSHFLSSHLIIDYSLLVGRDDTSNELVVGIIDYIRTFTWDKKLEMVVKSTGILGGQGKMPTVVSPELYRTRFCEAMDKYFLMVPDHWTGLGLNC
Protocol: PIKfyve biochemical assay (ADP-Glo Kinase assay, Carna Biosciences)
Details: ADP-Glo with full-length PIKfyve; read-out: PIKfyve IC50
Reported metric: IC50 (nM)

• Cc1cccc(/C=N/Nc2nc3c(c(N4CCOCC4)n2)N=C(c2ccncc2)C3C)c1 (stereo not shown) = 4.9

----------
Tested on: PIKfyve (PIKFYVE-NanoLuc fusion in HEK293 cells) (Homo sapiens (Human))
Sequence (Q9Y2I7 whole entry, the tested form may be a part): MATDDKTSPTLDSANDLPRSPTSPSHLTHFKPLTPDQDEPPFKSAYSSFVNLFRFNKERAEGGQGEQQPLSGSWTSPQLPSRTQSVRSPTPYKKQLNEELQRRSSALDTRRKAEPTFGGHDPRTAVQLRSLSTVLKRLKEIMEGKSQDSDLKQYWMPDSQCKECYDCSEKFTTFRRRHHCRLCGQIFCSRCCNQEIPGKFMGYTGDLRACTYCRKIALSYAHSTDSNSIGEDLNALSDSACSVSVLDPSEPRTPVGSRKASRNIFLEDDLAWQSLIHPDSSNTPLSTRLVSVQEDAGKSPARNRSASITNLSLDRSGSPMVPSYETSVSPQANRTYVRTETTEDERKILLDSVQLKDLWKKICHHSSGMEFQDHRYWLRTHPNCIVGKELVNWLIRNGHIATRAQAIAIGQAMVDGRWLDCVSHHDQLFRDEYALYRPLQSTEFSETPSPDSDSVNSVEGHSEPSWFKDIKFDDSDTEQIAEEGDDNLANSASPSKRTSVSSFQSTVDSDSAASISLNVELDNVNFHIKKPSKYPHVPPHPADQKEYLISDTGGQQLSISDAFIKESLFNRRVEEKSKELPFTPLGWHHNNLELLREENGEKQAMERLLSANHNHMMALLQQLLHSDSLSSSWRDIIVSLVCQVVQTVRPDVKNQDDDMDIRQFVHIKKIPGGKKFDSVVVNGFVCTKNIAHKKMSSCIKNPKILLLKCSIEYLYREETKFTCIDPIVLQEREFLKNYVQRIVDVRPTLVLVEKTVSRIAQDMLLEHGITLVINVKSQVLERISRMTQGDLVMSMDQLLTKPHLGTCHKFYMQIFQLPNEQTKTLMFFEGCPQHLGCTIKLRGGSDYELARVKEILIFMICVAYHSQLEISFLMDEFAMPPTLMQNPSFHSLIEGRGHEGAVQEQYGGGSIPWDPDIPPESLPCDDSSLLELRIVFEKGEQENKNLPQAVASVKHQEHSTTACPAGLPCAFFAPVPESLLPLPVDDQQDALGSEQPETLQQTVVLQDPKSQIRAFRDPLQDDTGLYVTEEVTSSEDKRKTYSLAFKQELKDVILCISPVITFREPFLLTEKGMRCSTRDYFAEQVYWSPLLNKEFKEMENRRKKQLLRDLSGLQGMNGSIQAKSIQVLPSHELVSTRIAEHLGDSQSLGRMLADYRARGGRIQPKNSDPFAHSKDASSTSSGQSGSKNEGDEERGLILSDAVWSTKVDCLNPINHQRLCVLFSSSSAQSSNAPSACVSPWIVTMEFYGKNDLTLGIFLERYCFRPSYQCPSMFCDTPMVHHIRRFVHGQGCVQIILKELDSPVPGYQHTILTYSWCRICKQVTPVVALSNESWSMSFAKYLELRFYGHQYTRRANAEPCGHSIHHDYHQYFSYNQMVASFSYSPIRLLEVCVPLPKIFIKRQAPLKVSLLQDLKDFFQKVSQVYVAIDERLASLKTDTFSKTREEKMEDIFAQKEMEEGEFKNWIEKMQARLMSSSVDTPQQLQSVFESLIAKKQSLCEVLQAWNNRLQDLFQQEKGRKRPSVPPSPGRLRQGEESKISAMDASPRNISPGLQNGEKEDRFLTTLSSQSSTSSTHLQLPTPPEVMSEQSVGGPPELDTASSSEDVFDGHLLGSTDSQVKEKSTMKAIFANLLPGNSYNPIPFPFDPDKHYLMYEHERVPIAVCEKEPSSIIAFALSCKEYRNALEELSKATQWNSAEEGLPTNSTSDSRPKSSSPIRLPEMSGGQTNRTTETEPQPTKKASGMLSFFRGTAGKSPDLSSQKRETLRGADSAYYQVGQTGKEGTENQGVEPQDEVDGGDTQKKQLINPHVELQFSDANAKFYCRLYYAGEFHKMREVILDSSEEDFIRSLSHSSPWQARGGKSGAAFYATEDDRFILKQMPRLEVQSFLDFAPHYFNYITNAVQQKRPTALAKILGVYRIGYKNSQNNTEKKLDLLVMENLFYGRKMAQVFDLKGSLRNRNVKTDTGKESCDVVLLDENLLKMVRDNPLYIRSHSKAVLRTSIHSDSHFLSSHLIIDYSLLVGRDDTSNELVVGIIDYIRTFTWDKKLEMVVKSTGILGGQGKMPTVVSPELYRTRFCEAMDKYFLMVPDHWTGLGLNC
Protocol: NanoBRET TE Intracellular Kinase Assay, K-8 (Promega) cell-based assay
Details: transfected HEK293 cells, 2 hours, read-out: hPIKfyve BRET IC50
pIC50: −log10 of the molar value.
Reported pIC50 values for the following molecules.
Reported metric: pIC50

* Clc1nc(N2CCOCC2)nc2c1CCN2c1ccccc1 [Compound 1] | 6.00 to 7.00
* c1ccc(-n2ncc3c(OCc4cccnc4)nc(N4CCOCC4)nc32)cc1 [Compound 132] | 6.00 to 7.00
* c1ccc(N2CCc3c(OC4CCOCC4)nc(N4CCOCC4)nc32)cc1 [Compound 21] | 6.00 to 7.00

----------
Each entry below lists one item and its recorded pIC50 value.
Tested on: full-length human PIKFYVE (N-terminal GST-fusion) (Homo sapiens (Human), UniProt Q9Y2I7, L932S/Q1183K/Q995L/S1033A/S696N/T998S)
Protocol: PIKfyve biochemical assay (ADP-Glo Kinase assay, Carna Biosciences)
Details: ADP-Glo, full-length human GST-PIKFYVE, 10 μM to 3 nM; read-out: hPIKfyve IC50
pIC50: −log10 of the molar value.
Reported metric: pIC50

- CC(C)(C)OC(=O)N1CCC(c2nc(N3CCOCC3)nc3c2CCN3c2ccccc2)CC1: 7.00 to 8.00
- c1ccc(N2CCc3c(-c4ccnnc4)nc(N4CCOCC4)nc32)cc1: 7.00 to 8.00
- CN1CCCC(COc2nc(N3CCOCC3)nc3c2CCN3c2ccccc2)C1 (stereo not drawn): 6.00 to 7.00
- c1ccc(-n2ccc(N3CCc4c(Oc5cccnc5)nc(N5CCOCC5)nc43)n2)cc1: 5.00 to 6.00
- COc1cccc(-c2c[nH]c3c(-c4ccncc4)nc(N4CCOCC4)nc23)n1: 7.00 to 8.00
- c1ccc(-n2ncc(N3CCc4c(Oc5cccnc5)nc(N5CCOCC5)nc43)n2)cc1: 5.00 to 6.00
- O=C(Cc1ccccc1)N1CCc2c(-c3ccncc3)nc(N3CCOCC3)nc21: 7.00 to 8.00
- O=c1ccccn1-c1nc(N2CCOCC2)nc2c1CCN2c1cccnc1: 5.00 to 6.00
- c1cncc(N2CCc3c(-c4ccncc4)nc(N4CCOCC4)nc32)c1: 7.00 to 8.00
- c1ccc(N2CCc3c(OCc4cccnn4)nc(N4CCOCC4)nc32)cc1: 7.00 to 8.00
- O=C(c1ccccc1)N1CCc2c(Oc3cccnc3)nc(N3CCOCC3)nc21: 5.00 to 6.00
- c1ccc(N2CCc3c(-c4ccncc4)nc(N4CCOCC4)nc32)cc1: 7.00 to 8.00
- c1ccc(N2CCc3c(Oc4ccncc4)nc(N4CCOCC4)nc32)cc1: 7.00 to 8.00
- CN1CC(c2nc(N3CCOCC3)nc3c2CCN3c2ccccc2)C1: 6.00 to 7.00
- c1ccc(N2CCc3c(Oc4cccnc4)nc(N4CCOCC4)nc32)cc1: 7.00 to 8.00
- c1ccc(-n2ncc3c(N4CCOCC4)nc(OCc4cccnc4)nc32)cc1: 5.00 to 6.00
- Fc1cccc(N2CCc3c(OCc4cccnn4)nc(N4CCOCC4)nc32)c1: 6.00 to 7.00
- c1cncc(-c2nc(N3CCOCC3)nc3c2CCN3c2ccc3c(c2)OCCO3)c1: > 8.00
